- study-system: Receptor-interacting serine/threonine-protein kinase 1 (Homo sapiens, UniProt Q13546)
- Sequence (Q13546 whole entry): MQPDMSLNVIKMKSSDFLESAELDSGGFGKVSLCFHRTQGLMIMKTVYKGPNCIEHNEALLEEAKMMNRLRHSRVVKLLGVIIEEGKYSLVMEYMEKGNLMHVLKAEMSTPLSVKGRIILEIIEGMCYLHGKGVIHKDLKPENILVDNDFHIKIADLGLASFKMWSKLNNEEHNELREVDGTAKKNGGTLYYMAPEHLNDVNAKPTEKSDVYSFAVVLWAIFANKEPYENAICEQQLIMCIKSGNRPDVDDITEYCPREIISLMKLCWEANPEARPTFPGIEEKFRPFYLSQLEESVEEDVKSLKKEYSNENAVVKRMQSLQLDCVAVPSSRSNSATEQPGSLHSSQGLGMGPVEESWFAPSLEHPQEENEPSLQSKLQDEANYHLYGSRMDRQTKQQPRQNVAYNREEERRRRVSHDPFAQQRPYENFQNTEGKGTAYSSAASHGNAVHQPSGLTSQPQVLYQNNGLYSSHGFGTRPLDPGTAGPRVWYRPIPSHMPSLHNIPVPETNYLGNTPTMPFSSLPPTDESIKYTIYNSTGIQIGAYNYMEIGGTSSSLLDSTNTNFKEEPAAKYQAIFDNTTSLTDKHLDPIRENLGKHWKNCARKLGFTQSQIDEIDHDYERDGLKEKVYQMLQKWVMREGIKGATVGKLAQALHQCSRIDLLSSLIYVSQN
measurement-label: IC50 (nM)
Numbers only; they are read as nM.

### Prompt Notebook: pull reported IC50 for Receptor-interacting serine/threonine-protein kinase 1 (Homo sapiens, UniProt Q13546), entry O=C(N1N=CCC1c1cc(F)cc(F)c1)C12CC(Cn3ncc4ncccc43)(C1)C2 (stereo unspecified) [US20250214942, Example 148]
### Response 80
